Let's look at some molecules and their measured logP.
- methodSummary: n-octanol-water partition coefficient, log P of the compound
- Type: physicochemical
- recordedConditions: n-octanol/water; read-out: logP
Simply state the number, no unit and no words.

{"molecule": "CNc1ccc(-c2nc3ccc(O)cc3s2)cn1", "resultValue": 2.7}

Next, consider the following molecule.
What value of logP has been reported for the following molecule? O=c1cc(-c2ccc(O)cc2)oc2cc(O)cc(O)c12 [APIGENIN]
2.2

====

- systemUnderTest: Amyloid-beta precursor protein (Homo sapiens, UniProt P05067)
- Sequence (P05067 whole entry): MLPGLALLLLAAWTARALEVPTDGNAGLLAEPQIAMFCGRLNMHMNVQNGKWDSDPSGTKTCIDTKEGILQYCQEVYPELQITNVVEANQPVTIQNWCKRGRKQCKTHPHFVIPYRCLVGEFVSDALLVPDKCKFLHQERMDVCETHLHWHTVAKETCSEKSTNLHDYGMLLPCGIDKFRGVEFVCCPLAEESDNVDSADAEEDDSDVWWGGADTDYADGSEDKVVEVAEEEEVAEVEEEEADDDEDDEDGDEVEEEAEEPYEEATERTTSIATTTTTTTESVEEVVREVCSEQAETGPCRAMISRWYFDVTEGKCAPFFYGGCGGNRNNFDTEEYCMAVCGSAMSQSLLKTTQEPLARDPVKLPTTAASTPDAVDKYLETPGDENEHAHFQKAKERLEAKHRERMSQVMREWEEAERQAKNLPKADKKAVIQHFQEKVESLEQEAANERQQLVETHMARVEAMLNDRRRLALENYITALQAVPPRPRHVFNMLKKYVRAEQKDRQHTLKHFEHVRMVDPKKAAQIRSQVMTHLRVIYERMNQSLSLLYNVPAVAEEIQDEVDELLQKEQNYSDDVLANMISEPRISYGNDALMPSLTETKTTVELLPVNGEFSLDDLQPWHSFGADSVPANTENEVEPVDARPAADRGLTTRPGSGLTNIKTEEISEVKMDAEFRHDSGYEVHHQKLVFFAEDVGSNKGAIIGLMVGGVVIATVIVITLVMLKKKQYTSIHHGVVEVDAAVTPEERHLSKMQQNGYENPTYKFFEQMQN
- methodSummary: Displacement of [3H]PIB from human amyloid beta (1 to 40) fibrils after 3 hrs by liquid scintillation counting
measuredParameter: Kd (nM)
Reply with just the number (in nM).

Lab note: need Kd with Amyloid-beta precursor protein (Homo sapiens, UniProt P05067) for entry `CNc1ccc(-c2nc3ccc(O)cc3s2)cn1` , please look it up.
8.4

====

- systemUnderTest: Amyloid-beta precursor protein (Homo sapiens, UniProt P05067)
- methodSummary: Inhibition of amyloid beta (1 to 42) (unknown origin) aggregation by Thioflavin-T fluorescence assay
measuredParameter: pIC50
The quantity pIC50 is defined as the negative base-10 logarithm of the molar concentration.

{"substanceSmiles": "O=c1c(O)c(-c2ccc(O)c(O)c2)oc2cc(O)cc(O)c12", "systemUnderTest": "Amyloid-beta precursor protein (Homo sapiens, UniProt P05067)", "pIC50": 3.90}

Next, consider the following compound.
Lab note: need pIC50 with Amyloid-beta precursor protein (Homo sapiens, UniProt P05067) for entry `O=c1cc(-c2ccc(O)cc2)oc2cc(O)cc(O)c12` , please look it up.
3.75

====

- Tested on: Escherichia coli BL21(DE3)
- methodSummary: Inhibition of amyloid beta (1 to 42) aggregation in Escherichia coli competent cells BL21 (DE3) at 200 uM after overnight incubation by Thioflavin-S steady-state fluorescence assay
measuredParameter: inhibition (%)
Reply with just the number (in %).

Illustrative cases are given below, each with its answer.
{"substanceSmiles": "O=C(/C=C/c1ccc(O)c(O)c1)O[C@H](Cc1ccc(O)c(O)c1)C(=O)O", "resultValue": 5.5}
{"substanceSmiles": "COc1cccc(C=O)c1O", "resultValue": 18.5}
{"substanceSmiles": "COc1cc(/C=C/C(=O)CC(=O)/C=C/c2ccc(O)c(OC)c2)ccc1O", "resultValue": 37.8}
{"substanceSmiles": "O=c1cc(-c2ccc(O)cc2)oc2cc(O)cc(O)c12", "resultValue": 77.3}
{"substanceSmiles": "O=c1c(O)c(-c2ccc(O)c(O)c2)oc2cc(O)cc(O)c12", "resultValue": 81.3}

Next, consider the following compound.
What value of inhibition has been reported for the following compound? `COc1ccc2[nH]cc(CCNC(C)=O)c2c1`
7.5

====

- systemUnderTest: UniProt P05067
- methodSummary: Inhibition of recombinant amyloid beta (1 to 42) fibrils (unknown origin) by thioflavin-T fluorescence assay
measuredParameter: IC50

What value of IC50 has been reported for the following compound? `O=c1cc(-c2ccc(O)cc2)oc2cc(O)cc(O)c12`
23 to 39 µM
